Below, each entry is listed alongside its reported protein stability index.
test: protein stability index of a GFP-peptide fusion (yeast GPS) (PSI 1-4); higher = more stable; sorted into four equal gates, so the index is relative within each strain; details: doa10∆
When you answer, write just the number.

Sample records with protein stability index:
For the sequence shown here, VTKEYFQDVYDLTGSEP [FAS1] , give the reported protein stability index. 2.53

For the sequence shown here, VTTNINWRSFNAKIIDA [SRP68] , give the reported protein stability index. 3.14

For the sequence shown here, FDNYQRNNFLAENSHTQ [PUP1] , give the reported protein stability index. 3.3

---
For the sequence shown here, DMVKLDINPPLVFILAV [RRP42] , give the reported protein stability index. 2.69

For the sequence shown here, RKRKCGHTNQLRPKKKL [RPL40A] , give the reported protein stability index. 2.84

For the sequence shown here, NNSALSNVNSDIYFKLK [RPT3] , give the reported protein stability index. 3.12

For the sequence shown here, TPSQIGVLLRDAHGVTQ [RPS13] , give the reported protein stability index. 1.74

The origin of these recorded values is the supplement of paper PMC9732359.
